# IC50 values compiled below
system: HCT116-MTAP-KO; test: Cell killing in HCT116 isogenic pair (Cell Titer-Glo viability), MTAP knock-out cells; assay type: cell-based, human; conditions: Homo sapiens, HCT-116, 144 h, 6 days incubation, 0-10 μM, * = more than 50% viability inhibition at tested concentration without a full curve
Number only, in nM; omit the unit.

>>> numeric_value("Nc1nc2cc(C(=O)N(Cc3ncccc3F)Cc3c(F)cc(F)cc3F)[nH]c2c2c1COC2")
4.4
>>> numeric_value("CO[C@@H]1CCOC[C@H]1N(Cc1ncc(C(F)(F)F)cc1F)C(=O)c1cc2nc(N)c3c(c2[nH]1)COC3")
7.4

Let's switch to this compound now.
Challenge: Lookup: IC50 / HCT116-MTAP-KO / "COC[C@@H](C)N(Cc1ccc(Br)cn1)C(=O)c1cc2nc(N)c3c(c2[nH]1)COC3"
Response given: 7.2
